target: D(1A) dopamine receptor (Homo sapiens) (UniProt P21728)
Sequence (P21728 whole entry): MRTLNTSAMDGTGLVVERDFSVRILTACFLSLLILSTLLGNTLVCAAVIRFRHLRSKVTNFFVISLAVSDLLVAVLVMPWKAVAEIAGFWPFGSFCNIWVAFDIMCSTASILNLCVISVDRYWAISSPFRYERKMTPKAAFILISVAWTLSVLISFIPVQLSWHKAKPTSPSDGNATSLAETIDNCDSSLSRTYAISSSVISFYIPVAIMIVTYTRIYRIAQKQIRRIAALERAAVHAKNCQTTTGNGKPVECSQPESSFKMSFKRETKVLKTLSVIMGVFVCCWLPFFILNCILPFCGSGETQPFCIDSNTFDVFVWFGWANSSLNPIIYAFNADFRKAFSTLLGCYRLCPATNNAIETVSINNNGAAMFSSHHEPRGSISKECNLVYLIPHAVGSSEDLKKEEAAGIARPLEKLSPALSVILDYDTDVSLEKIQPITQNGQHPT
measurementParameters: Oryctolagus cuniculus
Description: Dopamine receptor D1 like evaluated for mesenteric blood flow increase in anesthetized rabbit
readoutType: ED20 (nM/kg)
Kindly answer with a numeric value in nM/kg, unit omitted.

q: Requested read-out: ED20. Entry: `CCCCN(CCCCCCNCCOc1ccccc1OC)[C@H]1CCc2c(ccc(O)c2O)C1`
a: 60

q: Returns the measured ED20 for the input molecule. Input: `CCCN(CCCCCCN(C)CCOc1ccccc1OC)[C@H]1CCc2c(ccc(O)c2O)C1`
a: 34

====

target: Adrenergic receptor alpha-1 (Homo sapiens, UniProt P35348+P25100+P35368)
experiment: Activity at alpha-1 adrenergic receptor in rabbit aorta rings
Type: tissue-based, Oryctolagus cuniculus
measurementParameters: target entry is the homologue from another species
Catalogue of pA2 values

> print(dat)
                                 smilescode  readouttype  result
1  COc1ccccc1OCCNCCCCCCN[C@H]1CCc2c(ccc(O)c2O)C1          pA2     7.1

q: Quick check: pA2 of `CCCN(CCCCCCNCCOc1ccccc1OC)[C@H]1CCc2c(ccc(O)c2O)C1` ?
a: 6.5

q: // pA2 lookup, key: `CCCN(CCCCCCCNCCOc1ccccc1OC)[C@H]1CCc2c(ccc(O)c2O)C1`
a: 6.8

====

Entries and their pD2 values follow.
target: D(2) dopamine receptor (Homo sapiens) (UniProt P14416)
Sequence (P14416 whole entry): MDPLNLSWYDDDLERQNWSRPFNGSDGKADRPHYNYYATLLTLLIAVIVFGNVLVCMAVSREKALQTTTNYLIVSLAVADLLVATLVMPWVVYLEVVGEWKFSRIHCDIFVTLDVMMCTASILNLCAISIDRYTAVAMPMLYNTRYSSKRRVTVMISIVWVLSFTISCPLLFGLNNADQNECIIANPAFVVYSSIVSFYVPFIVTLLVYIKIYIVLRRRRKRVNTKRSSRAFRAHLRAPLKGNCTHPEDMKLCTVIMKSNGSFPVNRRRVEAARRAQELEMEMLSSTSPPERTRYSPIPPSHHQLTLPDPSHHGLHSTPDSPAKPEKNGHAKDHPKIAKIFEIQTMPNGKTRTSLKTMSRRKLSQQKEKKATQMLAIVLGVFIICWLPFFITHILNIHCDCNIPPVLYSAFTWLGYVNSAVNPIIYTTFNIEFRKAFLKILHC
measurementParameters: Oryctolagus cuniculus; Artery
Description: Activity at Dopamine receptor D2 in rabbit ear artery
Keep the answer to the number alone.

q: Query for D(2) dopamine receptor (Homo sapiens) (UniProt P14416): what pD2 does the record show for `CCCN(CCCCCNCCOc1ccccc1OC)[C@H]1CCc2c(ccc(O)c2O)C1` ?
a: 8.7

====

Listed below: pD2 values for each entry.
target: Adrenergic receptor alpha-2 (Homo sapiens) (UniProt P08913+P18825+P18089)
measurementParameters: Cavia porcellus; Cardiac atrium
Description: Alpha-2 adrenergic receptor activity in guinea pig right atrium
Would you mind answering with just the numeric figure?

Consider the worked cases shown below.
> print(dat)
                                 smilescode                                    target  readoutnumber
1  CCCN(CCCCCCCNCCOc1ccccc1OC)[C@H]1CCc2c(ccc(O)c2O)C1  Adrenergic receptor alpha-2 (Homo sapiens) (UniProt P08913+P18825+P18089)            5.7
2  CCCN(CCCCCCNCCOc1ccccc1OC)[C@H]1CCc2c(ccc(O)c2O)C1  Adrenergic receptor alpha-2 (Homo sapiens) (UniProt P08913+P18825+P18089)            6.7
3  CCCN(CCCCCNCCOc1ccccc1OC)[C@H]1CCc2c(ccc(O)c2O)C1  Adrenergic receptor alpha-2 (Homo sapiens) (UniProt P08913+P18825+P18089)            6.5
4  CCCN(CCCCCCN(C)CCOc1ccccc1OC)[C@H]1CCc2c(ccc(O)c2O)C1  Adrenergic receptor alpha-2 (Homo sapiens) (UniProt P08913+P18825+P18089)            6.9

Now take the following compound into account.
q: What value of pD2 has been recorded for this entry: `CCCN(CCCCCCN(CCC)[C@H]1CCc2c(ccc(O)c2O)C1)CCOc1ccccc1OC`
a: 6

====

target: D(1A) dopamine receptor (Homo sapiens)
measurementParameters: Oryctolagus cuniculus
readoutType: ED20 (nM/kg)
Give the number; nM/kg is assumed, so skip it.

Solved cases (3 shown):
> print(dat)
                                 smilescode  unitname  readoutnumber
1  CCCN(CCCCCCCNCCOc1ccccc1OC)[C@H]1CCc2c(ccc(O)c2O)C1     nM/kg             35
2  CCCN(CCCCCNCCOc1ccccc1OC)[C@H]1CCc2c(ccc(O)c2O)C1     nM/kg            107
3  CCCN(CCCCCCNCCOc1ccccc1OC)[C@@H]1CCc2c(ccc(O)c2O)C1     nM/kg           1050

q: Value wanted: ED20 (D(1A) dopamine receptor (Homo sapiens)) of entry `CCCN(CCCCCCNCCOc1ccccc1OC)[C@H]1CCc2c(ccc(O)c2O)C1`
a: 13

q: ED20 of `CCCN(CCCCCCN(CCC)[C@H]1CCc2c(ccc(O)c2O)C1)CCOc1ccccc1OC` on D(1A) dopamine receptor (Homo sapiens)?
a: 407

====

target: Adrenergic receptor alpha-1 (Homo sapiens, UniProt P35348+P25100+P35368)
Sequence (P35348 whole entry): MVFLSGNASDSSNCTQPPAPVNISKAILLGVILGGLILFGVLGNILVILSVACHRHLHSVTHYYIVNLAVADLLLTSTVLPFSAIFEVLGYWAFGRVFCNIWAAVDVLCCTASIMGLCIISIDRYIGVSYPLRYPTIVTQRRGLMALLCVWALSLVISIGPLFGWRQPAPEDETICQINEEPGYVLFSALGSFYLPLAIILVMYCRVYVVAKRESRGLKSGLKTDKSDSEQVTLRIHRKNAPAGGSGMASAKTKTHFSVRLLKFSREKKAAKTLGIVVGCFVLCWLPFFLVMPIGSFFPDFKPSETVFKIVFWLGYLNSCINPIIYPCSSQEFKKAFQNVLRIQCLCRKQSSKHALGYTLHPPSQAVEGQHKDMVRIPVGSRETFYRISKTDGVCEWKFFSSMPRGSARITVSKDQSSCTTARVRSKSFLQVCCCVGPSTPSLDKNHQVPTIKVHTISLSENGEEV
Sequence (P25100 whole entry): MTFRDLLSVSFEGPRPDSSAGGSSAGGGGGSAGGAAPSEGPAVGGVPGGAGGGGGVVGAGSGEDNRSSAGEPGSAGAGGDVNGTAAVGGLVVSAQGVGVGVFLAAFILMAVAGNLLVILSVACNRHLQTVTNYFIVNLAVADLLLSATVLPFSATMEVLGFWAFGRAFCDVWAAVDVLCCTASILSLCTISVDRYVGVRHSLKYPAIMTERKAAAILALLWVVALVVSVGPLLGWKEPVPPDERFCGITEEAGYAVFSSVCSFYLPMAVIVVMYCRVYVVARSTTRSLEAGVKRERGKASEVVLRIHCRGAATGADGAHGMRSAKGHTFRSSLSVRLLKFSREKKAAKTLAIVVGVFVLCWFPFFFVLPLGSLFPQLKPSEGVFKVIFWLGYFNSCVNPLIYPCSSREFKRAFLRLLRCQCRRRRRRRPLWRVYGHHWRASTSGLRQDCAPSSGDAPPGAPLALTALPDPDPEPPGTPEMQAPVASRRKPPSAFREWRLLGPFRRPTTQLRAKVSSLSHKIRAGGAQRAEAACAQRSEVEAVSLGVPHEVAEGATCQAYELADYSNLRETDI
Sequence (P35368 whole entry): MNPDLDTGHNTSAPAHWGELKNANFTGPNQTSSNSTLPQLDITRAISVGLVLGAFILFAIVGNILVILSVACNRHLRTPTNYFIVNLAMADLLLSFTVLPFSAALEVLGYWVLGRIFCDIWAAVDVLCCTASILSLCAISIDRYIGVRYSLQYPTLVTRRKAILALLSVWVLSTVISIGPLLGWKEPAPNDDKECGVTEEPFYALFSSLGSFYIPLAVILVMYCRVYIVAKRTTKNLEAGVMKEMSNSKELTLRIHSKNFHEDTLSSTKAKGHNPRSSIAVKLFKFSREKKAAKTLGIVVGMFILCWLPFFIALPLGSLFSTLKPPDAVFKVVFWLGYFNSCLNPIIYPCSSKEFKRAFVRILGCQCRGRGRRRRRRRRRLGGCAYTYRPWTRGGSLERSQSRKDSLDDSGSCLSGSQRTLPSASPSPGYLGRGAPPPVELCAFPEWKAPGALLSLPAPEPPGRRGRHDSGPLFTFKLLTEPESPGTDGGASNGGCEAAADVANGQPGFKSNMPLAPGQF
experiment: Activity at alpha-1 adrenergic receptor in rabbit aorta rings
Format: tissue-based, Oryctolagus cuniculus
measurementParameters: target entry is the homologue from another species
# pA2 per entry
No unit in the answer, only the number.

Record excerpt, results attached:
> print(dat)
                                 smilescode  readoutnumber
1  CCCCN(CCCCCCNCCOc1ccccc1OC)[C@H]1CCc2c(ccc(O)c2O)C1            6.6
2  CCCN(CCCCCNCCOc1ccccc1OC)[C@H]1CCc2c(ccc(O)c2O)C1            6.5
3  CCCN(CCCCCCNCCOc1ccccc1OC)CCc1ccc(O)c(O)c1            6.5

q: Dear colleague, I am looking for the recorded pA2 of the following compound: `CCCN(CCCCCCNCCOc1ccccc1OC)[C@@H]1CCc2c(ccc(O)c2O)C1`
a: 6.9

====

target: D(2) dopamine receptor (Homo sapiens) (UniProt P14416)
measurementParameters: Oryctolagus cuniculus; Artery
Output YES for pD2 not less than 7; output NO otherwise.

> print(dat)
                                 smilescode  grouplabel
1  COc1ccccc1OCCNCCCCCCN[C@H]1CCc2c(ccc(O)c2O)C1          NO
2  CCCN(CCCCCCN(C)CCOc1ccccc1OC)[C@H]1CCc2c(ccc(O)c2O)C1         YES
3  CCCN(CCCCCCNCCOc1ccccc1OC)[C@@H]1CCc2c(ccc(O)c2O)C1          NO
4  CCCN(CCCCCCN(CCC)[C@H]1CCc2c(ccc(O)c2O)C1)CCOc1ccccc1OC         YES
5  CCCN(CCCCCCCNCCOc1ccccc1OC)[C@H]1CCc2c(ccc(O)c2O)C1         YES

q: Decide: pD2 of `CCCN(CCCCCCNCCOc1ccccc1OC)[C@H]1CCc2c(ccc(O)c2O)C1` >= 7?
a: YES

q: Quick check: does `CCCCN(CCCCCCNCCOc1ccccc1OC)[C@H]1CCc2c(ccc(O)c2O)C1` have pD2 greater than or equal to 7?
a: YES

q: Hello, I need to know if `CCCN(CCCCCCNCCOc1ccccc1OC)CCc1ccc(O)c(O)c1` has measured pD2 not below 7. Thanks!
a: YES

Hello, the source for this data is ChEMBL document CHEMBL1129706, in case you need it.
